Tested on: K. pneumoniae A-15130
Attribute: log10 of MIC
All values: base-10 log of MIC in µg/mL.

Known results for compounds:
>>> df
                                   compound  obs_value
0  O=C(O)C1=C(CCCNO)SC2CC(=O)N12 (stereo not drawn)       0.90
1  CCC(N)CC1=C(C(=O)O)N2C(=O)CC2S1 (stereo not drawn)       1.20
2  COCOC[C@H](O)[C@H]1C(=O)N2C(C(=O)O)=C(C)S[C@H]12 (relative stereo)       1.80
3  O=C(O)C1=C(Cc2c[nH]c3ccccc23)SC2CC(=O)N12 (stereo not drawn)       1.51
4  CSC1C(=O)N2C(C(=O)O)=C(C)SC12 (stereo not drawn)       1.80

[in] Value lookup for log10 of MIC; key = O=C([O-])C1=C(COCc2ccccc2)S[C@@H]2CC(=O)N12.[Na+] [Preparation 14 (Na^+ Salt)]
[out] 2.10

[in] Same thing, different compound: CC(N)CCC1=C(C(=O)O)N2C(=O)C[C@H]2S1 (stereo partly drawn)
[out] 0.90

---

For Klebsiella species A20468, measured MIC is reported for the entries below.

Known results for compounds:
                                   compound    obs_value
0  N[C@H]1C[C@H](C2=C(C(=O)O)N3C(=O)C[C@H]3S2)C1 [Example 75]  > 125 µg/mL
1  NC1CC1C1=C(C(=O)O)N2C(=O)CC2S1 (stereo not drawn) [Example 99]   > 63 µg/mL

[in] Value lookup for MIC; key = CC1=C(C(=O)O)N2C(=O)[C@H]([C@H]3COC(C)(C)O3)[C@H]2S1 (relative stereo) [Example 104]
[out] > 63 µg/mL

[in] Same thing, different compound: CON=C(C)CC1=C(C(=O)O)N2C(=O)CC2S1 (stereo not drawn) [Example 44]
[out] > 125 µg/mL

[in] Same thing, different compound: O=C([O-])C1=C(CO)S[C@@H]2CC(=O)N12.[Na+] [Preparation 20]
[out] > 125 µg/mL

[in] Same thing, different compound: O=C(O)C1=C(C2CCC2)SC2CC(=O)N12 (stereo not drawn) [Example 21, 2-Cyclobutylpenem-3-carboxylic Acid]
[out] > 125 µg/mL

[in] Same thing, different compound: CC1=C(C(=O)O)N2C(=O)[C@@H]([C@@H](C)O)[C@H]2S1 (relative stereo) [Example 34]
[out] 125 µg/mL

[in] Same thing, different compound: COC1=C(C(=O)[O-])N2C(=O)C[C@H]2S1.[Na+] [Preparation 17, Sodium 2-Methoxypenem-3-carboxylate]
[out] > 63 µg/mL

[in] Same thing, different compound: NCCCCCC1=C(C(=O)O)N2C(=O)C[C@H]2S1 [Example 87]
[out] > 125 µg/mL

[in] Same thing, different compound: N=C(Cc1ccccc1)NCC1=C(C(=O)O)N2C(=O)CC2S1 (stereo not drawn) [Example 107]
[out] > 63 µg/mL

[in] Same thing, different compound: C[C@@H](O)[C@H]1C(=O)N2C(C(=O)O)=C(COCCN)S[C@H]12 (relative stereo) [66,96]
[out] 2 µg/mL

[in] Same thing, different compound: CC(=O)OCC1=C(C(=O)[O-])N2C(=O)C[C@H]2S1.[Na+] [Preparation 5]
[out] > 125 µg/mL

[in] Same thing, different compound: CC[C@@H](O)[C@H]1C(=O)N2C(C(=O)O)=C(C)S[C@H]12 (relative stereo) [Example 94]
[out] > 125 µg/mL

[in] Same thing, different compound: CCCCC1=C(C(=O)[O-])N2C(=O)C[C@H]2S1.[Na+] [Preparation 24, Sodium 2-butylpenem-3-carboxylate]
[out] > 125 µg/mL

[in] Same thing, different compound: CC[C@H](O)[C@H]1C(=O)N2C(C(=O)O)=C(C)S[C@H]12 (relative stereo) [Example 93]
[out] > 125 µg/mL

[in] Same thing, different compound: CCOP(=O)(CCC1=C(C(=O)O)N2C(=O)CC2S1)OCC (stereo not drawn) [Preparation 25]
[out] 4 µg/mL

[in] Same thing, different compound: NCCSCC1=C(C(=O)O)N2C(=O)CC2S1 (stereo not drawn) [Example 88]
[out] > 63 µg/mL

[in] Same thing, different compound: COCOC[C@@H](O)[C@H]1C(=O)N2C(C(=O)O)=C(C)S[C@H]12 (relative stereo) [Example 106]
[out] > 63 µg/mL

[in] Same thing, different compound: O=C([O-])C1=C(c2cccnc2)S[C@@H]2CC(=O)N12.[Na+] [Example 53, Sodium 2-(3-Pyridyl)penem-3-carboxylate]
[out] > 125 µg/mL

[in] Same thing, different compound: CCCC1=C(C(=O)O)N2C(=O)C[C@H]2S1 [Preparation 15, 2-Propylpenem-3-carboxylic Acid]
[out] > 125 µg/mL

[in] Same thing, different compound: COCC1=C(C(=O)[O-])N2C(=O)C[C@H]2S1.[Na+] [Preparation 6]
[out] > 125 µg/mL

[in] Same thing, different compound: C[C@@H](O)[C@H]1C(=O)N2C(C(=O)O)=C(CN)S[C@H]12 (relative stereo) [Example 62]
[out] 32 µg/mL

[in] Same thing, different compound: CC1=C(C(=O)O)N2C(=O)[C@H]([C@@H](C)O)[C@H]2S1 (relative stereo) [Example 60]
[out] 16 µg/mL

[in] Same thing, different compound: NC1CCC(C2=C(C(=O)O)N3C(=O)C[C@H]3S2)C1 (single isomer, unassigned) [98 isomer A]
[out] > 63 µg/mL

[in] Same thing, different compound: O=C(O)C1=C(C(F)(F)F)SC2CC(=O)N12 (stereo not drawn) [Example 17]
[out] > 125 µg/mL

---

For Klebsiella species A20468, measured MIC is reported for the entries below.

Known results for compounds:
>>> df
                                   compound    obs_value
0  NCC(=O)OCC1=C(C(=O)O)N2C(=O)CC2S1 (stereo not drawn)   > 63 µg/mL
1  O=C(O)C1=C(Cc2cscn2)SC2CC(=O)N12 (stereo not drawn)    125 µg/mL
2  CSc1nnc(C2=C(C(=O)O)N3C(=O)CC3S2)o1 (stereo not drawn)  > 125 µg/mL
3  NCCC1=C(C(=O)O)N2C(=O)CC2S1 (stereo not drawn)    125 µg/mL
4  CC(N)CCC1=C(C(=O)O)N2C(=O)C[C@H]2S1 (stereo partly drawn)   > 63 µg/mL

[in] Value lookup for MIC; key = CC1=C(C(=O)O)N2C(=O)C(C(O)c3ccccc3)C2S1 (stereo not drawn)
[out] > 125 µg/mL

[in] Same thing, different compound: CC1=C(C(=O)O)N2C(=O)[C@H]([C@H](C)O)[C@H]2S1 (relative stereo)
[out] > 125 µg/mL

[in] Same thing, different compound: O=C(O)C1=C(Cc2c[nH]c3ccccc23)SC2CC(=O)N12 (stereo not drawn)
[out] > 125 µg/mL

[in] Same thing, different compound: O=C(O)C1=C(c2ccco2)SC2CC(=O)N12 (stereo not drawn)
[out] > 63 µg/mL

[in] Same thing, different compound: CC1=C(C(=O)O)N2C(=O)[C@@H](CO)[C@H]2S1 (relative stereo)
[out] 125 µg/mL

[in] Same thing, different compound: CC1(CC2=C(C(=O)O)N3C(=O)CC3S2)OCCO1 (stereo not drawn)
[out] 125 µg/mL

[in] Same thing, different compound: O=C(O)CCC1=C(C(=O)O)N2C(=O)CC2S1 (stereo not drawn)
[out] > 125 µg/mL

---

Tested on: Staph. aureus A-9537 and 50% serum
Experiment: MIC, tube dilution, Staph. aureus A9537 + 50% serum
Type: cell-based, Staphylococcus aureus
Conditions: Staphylococcus aureus, overnight 37° C., read-out: Minimum Inhibitory Concentration (M.I.C.)
Exam item: assign Satisfied to entries whose MIC is below 30 µg/mL and Not satisfied to entries at or above 30 µg/mL. Note that a value of exactly 30 µg/mL receives Not satisfied.

Reference set, count: 5
>>> df
                                   molecule                           tested_on    group_label
0  CC[C@@H](O)[C@H]1C(=O)N2C(C(=O)O)=C(C)S[C@H]12 (relative stereo)  Staph. aureus A-9537 and 50% serum  Not satisfied
1  CC1=C(C(=O)O)N2C(=O)[C@H]([C@@H]3COC(C)(C)O3)[C@H]2S1 (relative stereo)  Staph. aureus A-9537 and 50% serum  Not satisfied
2  CCCCC1=C(C(=O)[O-])N2C(=O)C[C@H]2S1.[Na+] [Preparation 24, Sodium 2-butylpenem-3-carboxylate]  Staph. aureus A-9537 and 50% serum  Not satisfied
3  O=C(O)C1=C(Cc2c[nH]c3ccccc23)SC2CC(=O)N12 (stereo not shown)  Staph. aureus A-9537 and 50% serum  Not satisfied
4  CC1(CC2=C(C(=O)O)N3C(=O)CC3S2)OCCO1 (stereo not shown)  Staph. aureus A-9537 and 50% serum  Not satisfied

# next molecule below
[in] Dear colleague, could you confirm whether MIC of CC1=C(C(=O)O)N2C(=O)[C@@H]([C@@H](C)O)[C@H]2S1 (relative stereo) falls below 30 µg/mL? Thanks.
[out] Not satisfied

Cited source for all entries: patent US4272437A
